- settings: in sec-butanol, 293.15 K
reportedEndpoint: solubility (mole fraction)
Respond using a number only.

Data request: Look up solubility (mole fraction) for this compound: CCOC(=O)[C@@H]1CSCN1.Cl
Data returned: 0.00103

---

- settings: in 1,4-dioxane, 303.15 K
reportedEndpoint: solubility (mole fraction)
Respond using a number only.

Data request: Look up solubility (mole fraction) for this molecule: CCOC(=O)[C@@H]1CSCN1.Cl
Data returned: 0.000872

---

- settings: in methanol, 313.15 K
reportedEndpoint: solubility (mole fraction)

Data request: Look up solubility (mole fraction) for this compound: CCOC(=O)[C@@H]1CSCN1.Cl
Data returned: 0.112
